- measurement_description: Pharmacokinetics in AAV8-Ctrl mice
- measurement_parameters: C57BL/6J, mouse, serum, po, 16.5 mg/kg, Vz/F, aumolertinib 16.5 mg/kg oral alone (Aum)
reported_metric: Vd/F

Given item C=CC(=O)Nc1cc(Nc2nccc(-c3cn(C4CC4)c4ccccc34)n2)c(OC)cc1N(C)CCN(C)C , the value recorded as its Vd/F is 98.8 L/kg

====

- measurement_description: Pharmacokinetics of aumolertinib and HAS-719 in SD rats
- measurement_parameters: Sprague-Dawley, rat, plasma, po, 11 mg/kg, Cmax, telmisartan 8 mg/kg oral 0.5 h before aumolertinib 11 mg/kg oral (Tel + Aum)
reported_metric: Cmax (ng/mL)
Give just the number in ng/mL; leave the unit off.

Given item C=CC(=O)Nc1cc(Nc2nccc(-c3cn(C4CC4)c4ccccc34)n2)c(OC)cc1N(C)CCN(C)C , the value recorded as its Cmax is 8.73
